- Experimental target: Marasmius oreades lectin (MOA, cMOA) (Marasmius oreades, UniProt Q8X123)
- Sequence (Q8X123 1-293): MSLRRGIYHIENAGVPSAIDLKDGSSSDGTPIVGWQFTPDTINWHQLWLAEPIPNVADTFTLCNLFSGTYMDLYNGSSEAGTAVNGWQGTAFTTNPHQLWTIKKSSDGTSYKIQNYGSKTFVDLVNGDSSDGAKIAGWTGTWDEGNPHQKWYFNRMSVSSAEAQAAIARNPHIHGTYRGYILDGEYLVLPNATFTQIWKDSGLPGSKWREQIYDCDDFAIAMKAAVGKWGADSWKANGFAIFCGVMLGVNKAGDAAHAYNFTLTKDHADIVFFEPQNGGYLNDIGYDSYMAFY
- Procedure summary: Isothermal titration calorimetry, MOA of Example 1 (proteolyzed, clipped form, cMOA)
- Assay type: binding
- Test settings: isothermal titration calorimetry
Parameter measured: TΔS
# include the unit after the value

Example entries begin here.
{"Compound": "OC[C@H]1O[C@@H](OC[C@H]2OC(O)[C@H](O)[C@@H](O)[C@H]2O)[C@H](O)[C@@H](O)[C@H]1O (stereo partly drawn) [Galβ1,6Gal]", "Experimental target": "Marasmius oreades lectin (MOA, cMOA) (Marasmius oreades, UniProt Q8X123)", "Obs value": "2.84 kcal/mol"}
{"Compound": "C[C@@H]1O[C@@H](O[C@H]2C(O)O[C@H](CO)[C@H](O)[C@@H]2O[C@H]2O[C@H](CO)[C@H](O)[C@H](O)[C@H]2O)[C@@H](O)[C@H](O)[C@@H]1O (stereo partly drawn) [B trisaccharide, Galα1,3[Fucα1,2]Gal]", "Experimental target": "Marasmius oreades lectin (MOA, cMOA) (Marasmius oreades, UniProt Q8X123)", "Obs value": "14.6 kcal/mol"}

Now consider a different compound.
Prompt line: I would be grateful if you could share the reported TΔS for CO[C@H]1O[C@H](CO)[C@H](O)[C@H](O)[C@H]1O [Me-α-Gal, Methyl α-galactopyranoside] .
Response line: 3.06 kcal/mol
